Below: a set of entries, each annotated with reported IC50.
Target: KRasG12C (M1-K169, biotinylated on the N-terminus) (Homo sapiens (Human), UniProt P01116, G12C)
Experiment: Covalent competition assay: scintillation proximity assay (SPA) quantifying covalent modification of KRASG12C
Settings: competition with radiolabeled covalent probe (Compound B/Compound A), 2 hours incubation, 10 nM KRasG12C
Give the value in µM but do not write µM after it.

Here are 2 compounds together with their reported answers.
>  <Compound>
C=CC(=O)N1CC2(CC(n3nc(N4CC[C@@H](CN5CCN(C(=O)NC)CC5)CC4(C)C)c(-c4c(Cl)c(Cl)cc5[nH]ncc45)c3C)C2)C1 (single isomer, unassigned) [Example 289a]

>  <Unit of measure>
µM

>  <Reported measurement>
3.3

$$$$
>  <Compound>
C=CC(=O)N1CC2(CC(n3nc(N4CCCC45CCOCC5)c(-c4c(Cl)c(C)cc5[nH]ncc45)c3C)C2)C1 [Example 60]

>  <Unit of measure>
µM

>  <Reported measurement>
4.9

$$$$

What IC50 value was documented for this compound, C=CC(=O)N1CC2(CC(n3nc(N4[C@H]5CC[C@@H]4CN(C)CC5)c(-c4c(Cl)c(C)cc5[nH]ncc45)c3C)C2)C1 [Example 64] ?
0.519
